The values you see were collected from PubChem BioAssay AID272.

- System: Lewis lung carcinoma i.m., BDF1 mice, T/C %
- assay summary: NCI In Vivo Anticancer Drug Screen. Data for tumor model Lewis Lung Carcinoma (intramuscular) in B6D2F1 (BDF1) mice
- cond: endpoint: median survival time; dose: 0.5 mg/kg/injection; schedule: Q01DX011 (ip); vehicle: other; higher = longer survival
Inconclusive results are not listed.
assay endpoint: T/C

Recorded T/C, per entry:
COc1cccc2c1C(=O)c1c(O)c3c(c(O)c1C2=O)C[C@@](O)(C(=O)COC(=O)Cc1cccc2ccccc12)C[C@@H]3OC1CC(N)C(O)C(C)O1 (some centres undefined); 108 % of control
O=c1[nH]cc(N(CCCl)CCCl)c(=O)[nH]1; 102 % of control
Nc1nc(=S)c2[nH]cnc2[nH]1; 116 % of control

// next item, T/C requested
Exercise: Record lookup: for Lewis lung carcinoma i.m., BDF1 mice, T/C %, what T/C belongs to NC(Cc1c[nH]c2ccc(N(CCCl)CCCl)cc12)C(=O)O (centres undefined) ?
Key: 96 % of control

* * *

- System: Lewis lung carcinoma i.m., BDF1 mice, T/C %
- assay summary: NCI In Vivo Anticancer Drug Screen. Data for tumor model Lewis Lung Carcinoma (intramuscular) in B6D2F1 (BDF1) mice
- cond: endpoint: mean tumor weight; dose: 6.25 mg/kg/injection; schedule: Q01DX011 (ip); vehicle: saline; higher = larger tumour
Records with an inconclusive call do not appear.
assay endpoint: T/C

Recorded T/C, per entry:
FC(F)(F)c1ccc(-c2ccc(OCCN3CCCC3)cc2)cc1; 62 % of control
CC1OC(=O)C(C2OC2C)=CC1O (stereo not given); 93 % of control
CC1CCC(NC(=O)N(CCCl)N=O)CC1 (stereo not given); 63 % of control
COc1cc([C@@H]2c3cc4c(cc3C[C@H]3COC(=O)[C@@H]32)OCO4)cc(OC)c1OC; 100 % of control

// next item, T/C requested
Exercise: Record lookup: for Lewis lung carcinoma i.m., BDF1 mice, T/C %, what T/C belongs to `O=[N+]([O-])O.[Ga]` ?
Key: 104 % of control

* * *

- Test system: Lewis lung carcinoma i.m., BDF1 mice, T/C %
- assay summary: NCI In Vivo Anticancer Drug Screen. Data for tumor model Lewis Lung Carcinoma (intramuscular) in B6D2F1 (BDF1) mice
- cond: endpoint: median survival time; dose: 1.0 mg/kg/injection; schedule: Q01DX011 (ip); vehicle: saline; higher = longer survival
Inconclusive results are not listed.
assay endpoint: T/C

Recorded T/C, per entry:
COc1cc([C@@H]2c3cc4c(cc3[C@@H](OC3OC5COC(C)OC5C(O)C3O)[C@H]3COC(=O)[C@H]23)OCO4)cc(OC)c1O (some centres not stated); 96 % of control
Cc1cccc2cc3c(ccc4ccccc43)c[n+]12; 98 % of control
OC(C1CO1)C(O)C1CO1 (configuration not stated); 110 % of control

Exercise: Given the entry `COc1cc2c(c(OC)c1OC)-c1ccc(OC)c(=O)cc1[C@@H](NC=O)CC2` , report its measured T/C.
Key: 88 % of control

Exercise: // same read-out, input: COc1cc([C@@H]2c3cc4c(cc3[C@@H](OC3OC5CO[C@@H](c6cccs6)OC5C(O)C3O)[C@H]3COC(=O)[C@H]23)OCO4)cc(OC)c1O (some centres not stated)
Key: 106 % of control

Exercise: // same read-out, input: CC(=O)OC1C(=O)C(O)C(C)OC1O[C@@H]1C[C@@]2(C)[C@@H]3CC=C4[C@@H](C[C@H](O)C(=O)C4(C)C)[C@]3(C)C(=O)C[C@]2(C)[C@H]1[C@@](C)(O)C(=O)/C=C/C(C)(C)O (some centres not stated)
Key: 89 % of control

Exercise: // same read-out, input: CCCCCCCCCCCC(c1ccccc1)[N+](C)(C)Cc1ccccc1 (configuration not stated)
Key: 120 % of control

* * *

The molecules listed here are annotated with their T/C.
- Tested on: Lewis lung carcinoma i.m., BDF1 mice, T/C %
- assay summary: NCI In Vivo Anticancer Drug Screen. Data for tumor model Lewis Lung Carcinoma (intramuscular) in B6D2F1 (BDF1) mice
- cond: endpoint: mean tumor weight (est.); dose: 20.0 mg/kg/injection; schedule: Q01DX011 (ip); vehicle: saline with Tween-80; higher = larger tumour
Inconclusive results are not listed.

Cc1[nH]c(=O)[nH]c(=O)c1N(CCF)CCCl; 54 % of control
CC1([CH2][Hg][I])CS(=O)(=O)CC(C)([CH2][Hg][I])O1 (centres undefined); 47 % of control
O=c1[nH]cc(F)c(=O)[nH]1; 9 % of control

Exercise: Given the entry `O=C(CBr)OCCOc1ccccc1` , report its measured T/C.
Key: 85 % of control

* * *

- Test system: Lewis lung carcinoma i.m., BDF1 mice, T/C %
- assay summary: NCI In Vivo Anticancer Drug Screen. Data for tumor model Lewis Lung Carcinoma (intramuscular) in B6D2F1 (BDF1) mice
- cond: endpoint: mean tumor weight; dose: 12.5 mg/kg/injection; schedule: Q01DX011 (ip); vehicle: other; higher = larger tumour
Inconclusive results are not listed.
The compounds listed here are annotated with their T/C.

Recorded T/C, per entry:
Nc1nc(=S)c2ncn(C3CC(O)C(CO)O3)c2[nH]1 (stereo not given); 120 % of control
CSc1ncnc2nc[nH]c12; 73 % of control
O=C1C(=O)c2ccccc2C(O)=C1CC=C(Cl)Cl; 71 % of control

Exercise: Given the entry `Clc1ncnc2nc[nH]c12` , report its measured T/C.
Key: 98 % of control

Exercise: // same read-out, input: `COc1cc(C[C@H]2c3cc(OC)c(OC)cc3CCN2C)c(Oc2cc3c(cc2OC)-c2c(OC)c(OC)cc4c2[C@H](C3)N(C)CC4)cc1OC`
Key: 104 % of control

* * *

- System: Lewis lung carcinoma i.m., BDF1 mice, T/C %
- assay summary: NCI In Vivo Anticancer Drug Screen. Data for tumor model Lewis Lung Carcinoma (intramuscular) in B6D2F1 (BDF1) mice
- cond: endpoint: median survival time; dose: 100.0 mg/kg/injection; schedule: Q01DX011 (ip); vehicle: saline; higher = longer survival
Inconclusive results are not listed.
assay endpoint: T/C

Recorded T/C, per entry:
CCOC(N)=O; 100 % of control
O=c1[nH]c2cc(Cl)ccc2c(CCl)c1Cl; 89 % of control
O=C(O)C1CSCN1 (centres undefined); 105 % of control

// next item, T/C requested
Exercise: Given the entry `Oc1ccc(I)c2cccnc12` , report its measured T/C.
Key: 95 % of control

* * *

- Tested on: Lewis lung carcinoma i.m., BDF1 mice, T/C %
- assay summary: NCI In Vivo Anticancer Drug Screen. Data for tumor model Lewis Lung Carcinoma (intramuscular) in B6D2F1 (BDF1) mice
- cond: endpoint: mean tumor weight (est.); dose: 200.0 mg/kg/injection; schedule: Q01DX011 (ip); vehicle: saline with Tween-80; higher = larger tumour
Results filed as inconclusive are left out.
assay endpoint: T/C

COc1cc(OC)c(OC)cc1/C=C\c1ccnc2ccccc12; 56 % of control
CC(=N/NC(N)=S)/C(C)=N/NC(N)=S; 65 % of control
CCCCN(CC)C(=S)S[Te](SC(=S)N(CC)CCCC)(SC(=S)N(CC)CCCC)SC(=S)N(CC)CCCC; 54 % of control
COc1c(C)c2c(c(O)c1C/C=C(\C)CCC(=O)O)C(=O)OC2; 27 % of control

// next item, T/C requested
Exercise: Given the entry CCOC(=O)N1c2ccccc2C=CC1C#N (stereo not drawn) , report its measured T/C.
Key: 72 % of control

* * *

- System: Lewis lung carcinoma i.m., BDF1 mice, T/C %
- assay summary: NCI In Vivo Anticancer Drug Screen. Data for tumor model Lewis Lung Carcinoma (intramuscular) in B6D2F1 (BDF1) mice
- cond: endpoint: mean tumor weight (est.); dose: 2.0 mg/kg/injection; schedule: Q01DX011 (ip); vehicle: saline with Tween-80; higher = larger tumour
- Procedure: The antitumor activity of compounds was measured in mice bearing transplantable tumors. Survival or tumor size were measured and the results are expressed as the measurement made in the treated group (T) divided by the measurement made in the vehicle treated control group (C). The tumor model used in this assay is Lewis Lung Carcinoma (intramuscular) in B6D2F1 (BDF1) mice
Inconclusive results are not listed.
assay endpoint: T/C

Recorded T/C, per entry:
c1ccc(-c2csc3c4ccccc4c4ccccc4[n+]23)cc1; 61 % of control
Cc1n(CC(C)C)c2c([n+]1C)C(=O)c1ccccc1C2=O; 40 % of control
Cc1n(Cc2ccccc2)c2c([n+]1C)C(=O)c1ccccc1C2=O; 43 % of control

// next item, T/C requested
Exercise: Given the entry `CCCCC(CCC)(CCN)CCCC` , report its measured T/C.
Key: 97 % of control

* * *

- Tested on: Lewis lung carcinoma i.m., BDF1 mice, T/C %
- assay summary: NCI In Vivo Anticancer Drug Screen. Data for tumor model Lewis Lung Carcinoma (intramuscular) in B6D2F1 (BDF1) mice
- cond: endpoint: median survival time; dose: 100.0 mg/kg/injection; schedule: Q01DX011 (ip); vehicle: saline; higher = longer survival
Records with an inconclusive call do not appear.
The compounds listed here are annotated with their T/C.

Recorded T/C, per entry:
C[C@]12C=CC(=O)C=C1CC[C@@H]1[C@@H]2C(=O)C[C@@]2(C)[C@H]1CC[C@]2(O)C(=O)CO; 102 % of control
ClC1(c2ccccc2)c2ccc(Br)cc2-c2cc(Br)ccc21; 88 % of control
OCC1OC(n2cnc3c(Cl)ncnc32)C(O)C1O (configuration not stated); 98 % of control
COc1ccc(N=O)c(O)c1; 110 % of control
N#CSCc1ccc(Cl)cc1Cl; 119 % of control

Exercise: Record lookup: for Lewis lung carcinoma i.m., BDF1 mice, T/C %, what T/C belongs to CS(=O)(=O)OCC(O)C(O)COS(C)(=O)=O (configuration not stated) ?
Key: 100 % of control

Exercise: // same read-out, input: CCCC(=O)Nc1ncnc2c1ncn2C1OC2COP(=O)(O)OC2C1OC(=O)CCC (configuration not stated)
Key: 100 % of control
